These data points were gathered from patent US7601686B2.

- Measured Target: porcine pancreatic elastase (PPE) (Sus scrofa, UniProt P00772)
- Sequence (P00772 27-266): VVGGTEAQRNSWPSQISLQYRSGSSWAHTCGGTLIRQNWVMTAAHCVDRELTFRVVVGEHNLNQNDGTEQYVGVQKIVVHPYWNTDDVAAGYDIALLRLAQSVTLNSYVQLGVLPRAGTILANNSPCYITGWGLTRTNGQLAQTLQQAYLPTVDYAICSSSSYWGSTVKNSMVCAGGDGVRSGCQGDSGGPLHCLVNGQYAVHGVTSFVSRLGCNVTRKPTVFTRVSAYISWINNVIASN
Measured Endpoint: IC50

// IC50 lookup, compound = C=CC1CC1(NC(=O)[C@@H]1C[C@@H](NC(=O)c2cc(-c3ccccc3)nc3ccccc23)CN1C(=O)[C@@H](NC(=O)CC1CC1)C(C)(C)C)C(=O)NS(=O)(=O)C1CC1 (stereo partly shown) [Compound 9] , result: > 100 µM

* * *

- Measured Target: HCV NS3/4A protease complex, BMS strain (UniProt P27958, species not given/STRAIN_BMS)
- Construct: DNA encoding the recombinant HCV NS3/4A protease complex (amino acids 1027 to 1711) for these strains [H77 and J4L6S]; fused on or other part: For the H77 and J4L6S constructs, a three-lysine solubilising tail at the NS4A C-terminus and a Ni-NTA-purifiable tag from pET21b
- Sequence (P27958 1027-1657, stated change not applied, one chain of several): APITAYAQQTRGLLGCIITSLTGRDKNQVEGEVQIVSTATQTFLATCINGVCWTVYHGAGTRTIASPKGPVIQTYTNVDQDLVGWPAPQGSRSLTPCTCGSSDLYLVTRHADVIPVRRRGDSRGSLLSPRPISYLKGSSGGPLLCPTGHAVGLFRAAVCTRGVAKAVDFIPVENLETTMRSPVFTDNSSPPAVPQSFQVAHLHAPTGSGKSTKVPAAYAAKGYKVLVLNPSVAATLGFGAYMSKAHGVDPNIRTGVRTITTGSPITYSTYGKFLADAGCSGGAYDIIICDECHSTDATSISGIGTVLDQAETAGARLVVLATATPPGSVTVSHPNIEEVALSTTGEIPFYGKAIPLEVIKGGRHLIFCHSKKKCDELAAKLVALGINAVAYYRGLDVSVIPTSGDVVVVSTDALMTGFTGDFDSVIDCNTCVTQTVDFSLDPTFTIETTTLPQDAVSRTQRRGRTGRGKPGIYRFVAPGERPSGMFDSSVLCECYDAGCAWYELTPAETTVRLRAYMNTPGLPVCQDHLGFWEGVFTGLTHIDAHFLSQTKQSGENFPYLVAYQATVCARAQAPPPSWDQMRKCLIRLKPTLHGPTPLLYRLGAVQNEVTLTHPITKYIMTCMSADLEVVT
- Assay Procedure: FRET peptide assay to monitor HCV NS3/4A proteolytic activity (BMS strain)
- Type: biochemical, Hepatitis C virus (genotype 1a)
- Conditions: read-out: IC 50 Range; NS3/4A BMS strain, enzyme assay
Measured Endpoint: IC50

// IC50 lookup, compound = C=CC1CC1(NC(=O)[C@@H]1C[C@@H](NC(=S)NCc2ccccc2)CN1C(=O)[C@@H](NC(=O)OC(C)(C)C)C(C)(C)C)C(=O)NS(=O)(=O)C1CC1 (stereo partly shown) , result: 150 to 15000 nM

// IC50 lookup, compound = C=CC1CC1(NC(=O)[C@@H]1C[C@@H](NC(=O)c2cn(CC)c3cc4c(cc3c2=O)OCO4)CN1C(=O)[C@@H](NC(=O)CC1CC1)C(C)(C)C)C(=O)NS(=O)(=O)C1CC1 (stereo partly shown) , result: < 150 nM

// IC50 lookup, compound = C=CC1CC1(NC(=O)[C@@H]1C[C@@H](NC(=O)Nc2cccc3ccccc23)CN1C(=O)[C@@H](NC(=O)OC(C)(C)C)C(C)(C)C)C(=O)NS(=O)(=O)C1CC1 (stereo partly shown) , result: < 150 nM

// IC50 lookup, compound = C=CC1CC1(NC(=O)[C@@H]1C[C@@H](NC(=O)N2CCc3ccccc3C2)CN1C(=O)[C@@H](NC(=O)CC1CC1)C(C)(C)C)C(=O)NS(=O)(=O)C1CC1 (stereo partly shown) , result: 150 to 15000 nM

* * *

- Test system: human pancreatic chymotrypsin
- Assay Procedure: Specificity assay, chymotrypsin
- Assay type: biochemical
- Conditions: 2 h enzyme-inhibitor pre-incubation; read-out: Chymotrypsin activity in the specificity assays
Measured Endpoint: IC50 (µM)
Output spec: scalar in µM, unitless text.

// returns IC50 for C=CC1CC1(NC(=O)[C@@H]1C[C@@H](NC(=O)c2cc(-c3ccccc3)nc3ccccc23)CN1C(=O)[C@@H](NC(=O)CC1CC1)C(C)(C)C)C(=O)NS(=O)(=O)C1CC1 (stereo partly shown) with human pancreatic chymotrypsin; value = 65

* * *

- Measured Target: human liver cathepsin B (Homo sapiens, UniProt P07858)
pIC50: −log10 of the molar value.
Measured Endpoint: pIC50

// pIC50 lookup, compound = C=CC1CC1(NC(=O)[C@@H]1C[C@@H](NC(=O)c2cc(-c3ccccc3)nc3ccccc23)CN1C(=O)[C@@H](NC(=O)CC1CC1)C(C)(C)C)C(=O)NS(=O)(=O)C1CC1 (stereo partly shown) , result: < 4.00
